Would you mind telling me the reported GBA EC50 Ratio ([35S]GTPγS binding) (EC50 compound/EC50 PYY(3-36)) of each entry?
test_target: human Y2 receptor (human) (UniProt P49146)
Sequence (P49146 whole entry): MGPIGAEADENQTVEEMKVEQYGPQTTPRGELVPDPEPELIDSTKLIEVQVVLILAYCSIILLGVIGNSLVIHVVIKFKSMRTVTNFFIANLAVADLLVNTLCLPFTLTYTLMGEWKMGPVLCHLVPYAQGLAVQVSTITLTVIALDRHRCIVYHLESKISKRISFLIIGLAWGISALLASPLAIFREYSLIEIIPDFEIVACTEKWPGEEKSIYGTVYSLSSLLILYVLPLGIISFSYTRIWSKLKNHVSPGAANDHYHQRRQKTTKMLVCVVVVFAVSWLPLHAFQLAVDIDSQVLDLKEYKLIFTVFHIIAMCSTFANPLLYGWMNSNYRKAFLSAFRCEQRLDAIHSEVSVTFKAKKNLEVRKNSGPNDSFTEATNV
protocol_summary: cell-based or functional assay
Non-standard residues stand in square brackets, D forms with d. *: point of attachment. Imidazole4carbonyl = O=C(c1cnc[nH]1)*; 4Pal = N[C@@H](Cc1ccncc1)C(=O)O; Cha = N[C@@H](CC1CCCCC1)C(=O)O; Cit = NC(=O)NCCC[C@H](N)C(=O)O; Iva = CC[C@](C)(N)C(=O)O; Aib = CC(C)(N)C(=O)O; βAla = NCCC(=O)O
Numbers only.

Hi there! I need GBA EC50 Ratio ([35S]GTPγS binding) (EC50 compound/EC50 PYY(3-36)) for each item below, if you can.
1. Ac-E[βAla]R[4Pal][Cha][Aib]NK[Aib]TRQR[Cha]-NH2 (SMILES CC(=O)N[C@@H](CCC(=O)O)C(=O)NCCC(=O)N[C@@H](CCCNC(=N)N)C(=O)N[C@@H](Cc1ccncc1)C(=O)N[C@@H](CC1CCCCC1)C(=O)NC(C)(C)C(=O)N[C@@H](CC(N)=O)C(=O)N[C@@H](CCCCN)C(=O)NC(C)(C)C(=O)N[C@H](C(=O)N[C@@H](CCCNC(=N)N)C(=O)N[C@@H](CCC(N)=O)C(=O)N[C@@H](CCCNC(=N)N)C(=O)N[C@@H](CC1CCCCC1)C(N)=O)[C@@H](C)O) [Ac-[Glu23, βAla24, Pya(4)26, Cha27,36, Aib28,31, Lys30]-PYY(23-36)]
2. Imidazole4carbonyl-S[dP][Iva][4Pal][Cha][Aib]NK[Aib]TRQR[Cha]-NH2 (SMILES CC[C@](C)(NC(=O)[C@H]1CCCN1C(=O)[C@H](CO)NC(=O)c1cnc[nH]1)C(=O)N[C@@H](Cc1ccncc1)C(=O)N[C@@H](CC1CCCCC1)C(=O)NC(C)(C)C(=O)N[C@@H](CC(N)=O)C(=O)N[C@@H](CCCCN)C(=O)NC(C)(C)C(=O)N[C@H](C(=O)N[C@@H](CCCNC(=N)N)C(=O)N[C@@H](CCC(N)=O)C(=O)N[C@@H](CCCNC(=N)N)C(=O)N[C@@H](CC1CCCCC1)C(N)=O)[C@@H](C)O) [4-Imidazolecarbonyl-[D-Pro24, Iva25, Pya(4)26, Cha27,36, Aib28,31, Lys30]-PYY(23-36)]
3. Ac-S[dP][Cit]H[Cha][Aib]NK[Aib]TRQR[Cha]-NH2 (SMILES CC(=O)N[C@@H](CO)C(=O)N1CCC[C@@H]1C(=O)N[C@@H](CCCNC(N)=O)C(=O)N[C@@H](Cc1c[nH]cn1)C(=O)N[C@@H](CC1CCCCC1)C(=O)NC(C)(C)C(=O)N[C@@H](CC(N)=O)C(=O)N[C@@H](CCCCN)C(=O)NC(C)(C)C(=O)N[C@H](C(=O)N[C@@H](CCCNC(=N)N)C(=O)N[C@@H](CCC(N)=O)C(=O)N[C@@H](CCCNC(=N)N)C(=O)N[C@@H](CC1CCCCC1)C(N)=O)[C@@H](C)O) [Ac-[D-Pro24, Cit25, Cha27,36, Aib28,31, Lys30]-PYY(23-36)]
4. Imidazole4carbonyl-E[dP]R[4Pal][Cha][Aib]NK[Aib]TRQR[Cha]-NH2 (SMILES C[C@@H](O)[C@H](NC(=O)C(C)(C)NC(=O)[C@H](CCCCN)NC(=O)[C@H](CC(N)=O)NC(=O)C(C)(C)NC(=O)[C@H](CC1CCCCC1)NC(=O)[C@H](Cc1ccncc1)NC(=O)[C@H](CCCNC(=N)N)NC(=O)[C@H]1CCCN1C(=O)[C@H](CCC(=O)O)NC(=O)c1cnc[nH]1)C(=O)N[C@@H](CCCNC(=N)N)C(=O)N[C@@H](CCC(N)=O)C(=O)N[C@@H](CCCNC(=N)N)C(=O)N[C@@H](CC1CCCCC1)C(N)=O) [4-Imidazolecarbonyl-[Glu23, D-Pro24, Pya(4)26, Cha27,36, Aib28,31, Lys30]-PYY(23-36)]
5. Carbamoylmethylcarbamoyl-S[dP][Iva][4Pal][Cha][Aib]NK[Aib]TRQR[Cha]-NH2 [Carbamoylmethylcarbamoyl-[D-Pro24, Iva25, Pya(4)26, Cha27,36, Aib28,31, Lys30]-PYY(23-36)]
6. Imidazole4carbonyl-S[dP][Iva][4Pal][Cha][Aib]N[Cha][Aib]TRQR[Cha]-NH2 (SMILES CC[C@](C)(NC(=O)[C@H]1CCCN1C(=O)[C@H](CO)NC(=O)c1cnc[nH]1)C(=O)N[C@@H](Cc1ccncc1)C(=O)N[C@@H](CC1CCCCC1)C(=O)NC(C)(C)C(=O)N[C@@H](CC(N)=O)C(=O)N[C@@H](CC1CCCCC1)C(=O)NC(C)(C)C(=O)N[C@H](C(=O)N[C@@H](CCCNC(=N)N)C(=O)N[C@@H](CCC(N)=O)C(=O)N[C@@H](CCCNC(=N)N)C(=O)N[C@@H](CC1CCCCC1)C(N)=O)[C@@H](C)O) [4-Imidazolecarbonyl-[D-Pro24, Iva25, Pya(4)26, Cha27,30,36, Aib28,31]-PYY(23-36)]

Solution:
3.9
0.91
4.6
1.3
1.7
1.9

Problem: Reported GBA EC50 Ratio ([35S]GTPγS binding) (EC50 compound/EC50 PYY(3-36)), binder Ac-S[dP]R[4Pal][Cha][Aib]NW[Aib]TRQR[Cha]-NH2 (SMILES CC(=O)N[C@@H](CO)C(=O)N1CCC[C@@H]1C(=O)N[C@@H](CCCNC(=N)N)C(=O)N[C@@H](Cc1ccncc1)C(=O)N[C@@H](CC1CCCCC1)C(=O)NC(C)(C)C(=O)N[C@@H](CC(N)=O)C(=O)N[C@@H](Cc1c[nH]c2ccccc12)C(=O)NC(C)(C)C(=O)N[C@H](C(=O)N[C@@H](CCCNC(=N)N)C(=O)N[C@@H](CCC(N)=O)C(=O)N[C@@H](CCCNC(=N)N)C(=O)N[C@@H](CC1CCCCC1)C(N)=O)[C@@H](C)O) [Ac-[D-Pro24, Pya(4)26, Cha27,36, Aib28,31, Trp30]-PYY(23-36)] : ____
Solution: 2.4
